Cited source for all entries: the supplement of paper PMC9170038

# System: MS2 coat protein
# ASSAY PROTOCOL: apparent KD of MS2 coat protein; designed switch direction (-1 OFF switch, 1 ON switch): -1; higher = weaker reporter binding
# CONDITION NOTES: input ligand: none
Lab note: compare apparent KD of MS2 coat protein against 60 nM. Equal or greater, write Yes. Smaller, write No.

Solved cases below.
{"SEQUENCE RECORD": "CAGUACUGAGGAUAUACAUGAGGAUCACCCAUGUGAGAGAUACUAGUGAGGUCGAUUAGUAGAAGGCAGUACUG [Mat X3R4 m3] (Eterna round: R97, puzzle: Exclusion 3)", "LABEL CLASS": "No"}
{"SEQUENCE RECORD": "AAUGUGUGAGGAUAUUAAUUGUAAUUGAAUAGAAUUAUGAUUGAGAAGGCACAUGAGGAUCACCCAUGUUCCAA [JR_Ex4_Sub082] (Eterna round: R97, puzzle: Exclusion 4)", "LABEL CLASS": "No"}
{"SEQUENCE RECORD": "AACGUACGUCGAGGAUAUGACGAGAAAUAUGAGUCAGAAGGCGACUGGUACAUGAGGAUCACCCAUGUUGCGACCAUGUGGCUU [Eternabot solution 23] (Eterna round: R96, puzzle: Exclusion NG 1)", "LABEL CLASS": "No"}

**Query** Determine whether this sequence has apparent KD of MS2 coat protein no lower than 60 nM: CAAACUUCGCGAGGAUAUGGGAUCAUAUAGAUGCCAGAAGGCGCGACAUGAGGAUCACCCAUGUGUUUUGCCCUGUGAUUCCAG [Eternabot solution 12] (Eterna round: R96, puzzle: Exclusion NG 1)
**Result** No

**Query** Textbook exercise: given the entry AAAUAGGUAGGAUAUACAUGAGGAUCACCCAUGUGCUGCCGCGCGUCAAUCUCUUCACGUAGAAGGGCCCAGAC [Reveara] (Eterna round: R97, puzzle: Exclusion 3) , state whether its apparent KD of MS2 coat protein is greater than or equal to 60 nM.
**Result** No

**Query** Say whether GGGUGACAUGAGGAUCACCCAUGUCAGGAUAUGAUUCUGCUUGCGAAAGCGAGUAGAAUCAGAAGGGACAUCCC (Eterna round: R97, puzzle: Exclusion 1) shows apparent KD of MS2 coat protein of 60 nM or more.
**Result** Yes

**Query** Is it the case that CCCGUCGAUGUAGGAUAUGCCCGGGUCUCCCGGGCAGAAGGACAUGAGGAUCACCCAUGUUCAUGAGGAUCACCCGUGAAUGGG [Double but mutated MS2] (Eterna round: R96, puzzle: Exclusion NG 1) has apparent KD of MS2 coat protein reaching or exceeding 60 nM?
**Result** No

**Query** Assess whether reported apparent KD of MS2 coat protein for UGUGCUUCAGGAUAUACGUGACGACCGUGAGGUCGAAGGUUACAUGAGGAUCACCCAUGUAGAAGGGAAGUACU [Mat - Exclusion 2 - JL Mod - D29] (Eterna round: R97, puzzle: Exclusion 2) sits at 60 nM or higher.
**Result** No

**Query** Form field: apparent KD of MS2 coat protein at least 60 nM? Entry: AAUACAAGCUAUUGAUCCCACAUGAGGAUCACCCAUGUAUAUGCCGGUGACACCUGCAUGACGAUAGCUCGUCUUAU [Sensor-V1 #59] (Eterna round: R97, puzzle: Sensor, turn-off variant 1)
**Result** Yes

**Query** I'd appreciate it if you could say whether UUUACAAGCUUAAGAUCCCACAUGAGGAUCACCCAUGUUCCUGGCCGUGAGGCUAGGUAAACUUAUGCUCGUCUUAU [JL TOV1 3.68] (Eterna round: R97, puzzle: Sensor, turn-off variant 1) has apparent KD of MS2 coat protein at least equal to 60 nM.
**Result** Yes

**Query** Given CUGUUUUUCGCAGGAUAUGCUCCUCCAUUAUUUGCAGAAGGGCGUUGAACAUGAGGAUCACCCAUGUAUGGAAAUGACUAUUGC [JR_ExcNG1_Sub068] (Eterna round: R96, puzzle: Exclusion NG 1) , state whether its apparent KD of MS2 coat protein is at least 60 nM.
**Result** No
